Let's look at some compounds and their measured activity change % (negative = inhibition).
Target: Thyroid hormone receptor beta (Homo sapiens) (UniProt P10828)
Sequence (P10828 whole entry, looked up): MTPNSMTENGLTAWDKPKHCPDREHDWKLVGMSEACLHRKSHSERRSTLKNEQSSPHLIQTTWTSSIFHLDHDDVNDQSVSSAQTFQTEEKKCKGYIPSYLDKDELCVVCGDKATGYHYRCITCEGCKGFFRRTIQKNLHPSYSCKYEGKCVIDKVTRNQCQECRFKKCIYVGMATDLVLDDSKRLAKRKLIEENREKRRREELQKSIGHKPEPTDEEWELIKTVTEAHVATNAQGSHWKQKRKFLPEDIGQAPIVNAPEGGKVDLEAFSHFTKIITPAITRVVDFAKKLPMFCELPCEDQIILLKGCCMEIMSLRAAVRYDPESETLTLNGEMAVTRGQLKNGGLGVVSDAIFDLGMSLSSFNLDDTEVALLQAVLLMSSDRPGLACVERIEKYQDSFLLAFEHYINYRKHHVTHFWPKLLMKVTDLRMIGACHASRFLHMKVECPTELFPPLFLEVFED
Test: qHTS assay for small molecule antagonists of thyroid hormone receptor beta signaling (AID 588547);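 also: cells stimulated with 0.4 nM T3 agonist during compound exposure; series mostly up to about 77 µM; % is scaled to controls: 0 for no effect and ±100 for the full control effect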
Conditions: TR-UAS-bla HEK293, beta-lactamase ratio, antagonist mode, 18 h
Records with an inconclusive call do not appear.
metric.name: activity change % (negative = inhibition) (%)

> print(dat)
                                   molecule  numeric.result
1                        NCCNc1cccc2ccccc12           -5.49
2                     CCCCCCCCCCCCCCCC(=O)O            13.6
3                      CCOc1ccc(NC(C)=O)cc1            4.97
4  COc1ccc(C(Cl)=C(c2ccc(OC)cc2)c2ccc(OC)cc2)cc1           -9.92
5  CCCCOC(=O)CC(CC(=O)OCCCC)(OC(C)=O)C(=O)OCCCC            12.8
